Recorded values, source paper PMC4113806.

Molecular target: angiotensin I-converting enzyme (ACE) (Oryctolagus cuniculus)
Sequence (P12822 34-1310): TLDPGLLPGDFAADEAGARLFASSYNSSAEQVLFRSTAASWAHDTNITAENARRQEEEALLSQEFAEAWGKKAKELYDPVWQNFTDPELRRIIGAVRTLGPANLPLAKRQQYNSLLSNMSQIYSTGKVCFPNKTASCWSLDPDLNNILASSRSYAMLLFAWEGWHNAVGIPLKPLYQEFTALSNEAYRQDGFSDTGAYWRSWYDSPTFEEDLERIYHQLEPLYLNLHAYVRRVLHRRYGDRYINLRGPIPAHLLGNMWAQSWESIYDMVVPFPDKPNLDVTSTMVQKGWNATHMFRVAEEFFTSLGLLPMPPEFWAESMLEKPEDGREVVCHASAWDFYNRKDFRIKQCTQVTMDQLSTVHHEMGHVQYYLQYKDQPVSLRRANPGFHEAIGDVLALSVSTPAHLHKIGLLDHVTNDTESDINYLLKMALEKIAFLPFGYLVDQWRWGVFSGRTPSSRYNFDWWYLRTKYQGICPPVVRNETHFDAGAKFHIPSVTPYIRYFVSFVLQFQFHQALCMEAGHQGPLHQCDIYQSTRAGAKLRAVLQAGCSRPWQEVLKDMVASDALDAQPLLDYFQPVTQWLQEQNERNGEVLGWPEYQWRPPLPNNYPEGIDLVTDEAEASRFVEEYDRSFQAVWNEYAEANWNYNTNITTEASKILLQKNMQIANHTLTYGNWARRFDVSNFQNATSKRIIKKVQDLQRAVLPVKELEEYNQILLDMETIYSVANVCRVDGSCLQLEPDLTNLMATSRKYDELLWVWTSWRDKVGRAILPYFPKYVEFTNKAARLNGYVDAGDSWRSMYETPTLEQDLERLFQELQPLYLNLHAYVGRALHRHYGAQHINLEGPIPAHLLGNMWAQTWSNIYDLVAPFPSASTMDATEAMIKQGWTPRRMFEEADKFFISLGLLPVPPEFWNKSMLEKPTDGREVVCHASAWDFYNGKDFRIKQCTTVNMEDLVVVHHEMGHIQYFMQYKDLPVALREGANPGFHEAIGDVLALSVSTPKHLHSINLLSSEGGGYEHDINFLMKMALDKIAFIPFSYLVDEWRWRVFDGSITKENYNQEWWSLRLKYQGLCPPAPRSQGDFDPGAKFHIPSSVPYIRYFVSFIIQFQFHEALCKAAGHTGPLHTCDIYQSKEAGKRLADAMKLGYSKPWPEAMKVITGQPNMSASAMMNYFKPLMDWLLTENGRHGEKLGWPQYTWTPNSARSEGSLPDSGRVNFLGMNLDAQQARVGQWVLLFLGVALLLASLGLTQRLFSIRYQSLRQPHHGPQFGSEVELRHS
Residues, ends and D or L forms follow the SMILES beside them.
assayMetric: pIC50
Please treat pIC50 as minus the base-10 logarithm of the molar concentration.

Below: 10 compounds and their reported pIC50.
| compound | assayMetric | endpointValue |
| --- | --- | --- |
| CC(C)C[C@H](N)C(=O)N[C@@H](Cc1ccccc1)C(=O)N[C@@H](CCCNC(=N)N)C(=O)O [LFR] (H-Leu-Phe-Arg-OH) | pIC50 | 4.50 |
| CC(C)C[C@H](N)C(=O)N[C@@H](CCCNC(=N)N)C(=O)O | pIC50 | 3.80 |
| CC(C)C[C@H](NC(=O)[C@H](CCCCN)NC(=O)[C@@H](N)CC(C)C)C(=O)N1CCC[C@H]1C(=O)O [LKLP] (H-LKLP-OH) | pIC50 | 3.44 |
| CC(C)C[C@H](N)C(=O)N[C@@H](CCC(=O)O)C(=O)NCC(=O)N[C@@H](CCCNC(=N)N)C(=O)O [LEGR] (H-LEGR-OH) | pIC50 | 2.96 |
| N=C(N)NCCC[C@H](NC(=O)[C@H](CCCCN)NC(=O)[C@@H](N)Cc1ccccc1)C(=O)O [FKR] (H-Phe-Lys-Arg-OH) | pIC50 | 4.11 |
| CC(C)C[C@H](NC(=O)[C@H](C)NC(=O)[C@@H](N)CC(C)C)C(=O)N[C@@H](CCCNC(=N)N)C(=O)O [LALR] (H-LALR-OH) | pIC50 | 2.90 |
| NC(N)=NCCC[C@H](NC(=O)[C@@H](N)CCCN=C(N)N)C(=O)O [RR] (H-Arg-Arg-OH) | pIC50 | 3.32 |
| CC(C)[C@H](N)C(=O)N[C@@H](CCCCN)C(=O)N[C@@H](Cc1ccccc1)C(=O)O [VKF] (H-Val-Lys-Phe-OH) | pIC50 | 4.98 |
| CC(C)C[C@H](NC(=O)[C@@H](N)CC(C)C)C(=O)N[C@@H](CCCNC(=N)N)C(=O)N[C@@H](Cc1c[nH]cn1)C(=O)O [LLRH] (H-LLRH-OH) | pIC50 | 3.51 |
| CC(C)C[C@H](N)C(=O)N[C@H](C(=O)N[C@@H](CCCCN)C(=O)N[C@@H](Cc1ccccc1)C(=O)O)C(C)C [LVKF] (H-LVKF-OH) | pIC50 | 4.61 |

Let's switch to this compound now.
Q: # query: pIC50 of entry CC(C)C[C@H](NC(=O)[C@H](CC(C)C)NC(=O)[C@@H](N)CC(C)C)C(=O)N[C@@H](CCCNC(=N)N)C(=O)O [LLLR] (H-LLLR-OH)
A: 3.00
